- Tested on: SNB-75 CNS
- test: NCI tumour cell line growth inhibition, 48 h; in the data active = GI50 below about 0.43 µM; inactive = the rest
Possible outcomes: T for active, F for inactive

* NCC1OC(OC2C(CO)OC(OC3C(O)C(N)CC(N)C3OC3OC(CO)C(O)C(O)C3N)C2O)C(N)C(O)C1O (stereo not drawn) | F
* COc1ccc(/C=C\c2cc(OC)c(OC)c(OC)c2)cc1OC(=O)c1cccc(Cn2cc(CCOC(=O)c3cccc(Cn4nnc5c4C(=O)c4ccccc4C5=O)c3)nn2)c1 | T
* CCN(CC)CCCC(Nc1c2ccc(Cl)cc2nc2ccc(OC)cc12)c1ccc(F)cc1 (stereo not drawn) | F
* Cc1nc(/N=C(\N)NC(=O)Nc2ccccc2Cl)sc1C | T
* CCC[CH2][Sn]([CH2]CCC)([O]C(=O)c1nccnc1N)[O]C(=O)c1nccnc1N | F
* N#CN1CCC[C@H]1C(=O)N1CCc2c(-c3[nH]nc4ncccc34)cccc21 | T
* CN(C)CCN=Cc1c2ccccc2c(=O)n2c1oc1ccccc12 | F
* CCCN(CCC)CCCNC(=O)c1cc2c(-c3ccc(OC)c(OC)c3)nn(C)c2s1 | F

###

- Test system: U251 CNS
- test: NCI tumour cell line growth inhibition, 48 h
Item-by-item account of TGI
property_name: TGI

* CC(C)OP(=O)(OC(C)C)/C(=N/N)NNc1ccc([N+](=O)[O-])cc1 | > 100 µM
* CC(=O)OCC12C(OC(C)=O)C[C@@H](C)C3(CC(c4ccoc4)OC3=O)C1CCC(O)C21CO1 (stereo not given in full) | > 100 µM
* CN1CCN(C(=S)N(C(=O)c2ccco2)c2ccccc2)CC1 | > 100 µM
* COc1cc2c3c(n(CCN(C)C)c(=O)c2cc1OC)-c1cc2c(cc1C3=O)OCO2 | > 100 µM
* COC(=O)C(Cc1ccccc1I)C1=CCC2(CC1)OCCO2 (stereo not given) | > 100 µM
* CC(=O)OCC1OC(OC2=C(CC=C(Cl)Cl)C(=O)c3ccccc3C2=O)C(OC(C)=O)C(OC(C)=O)C1OC(C)=O (stereo not given) | 13.3 µM
* CN1c2ccccc2S(=O)(=O)n2c(COc3ccc(Cl)cc3)nnc21 | > 100 µM
* COc1ccc2c(=O)c3cc([N+](=O)[O-])ccc3n(C)c2c1 | > 100 µM
* Nc1ccccc1NC(=O)c1ccc(CN2CCC/C(=C\c3cccc(Cl)c3)C2=O)cc1 | 13.2 µM
* O=C1/C(=C\c2coc3ccccc3c2=O)c2ccccc2N1c1c(Cl)cccc1Cl | 35.6 µM

###

- Test system: OVCAR-8 ovarian
- test: NCI tumour cell line growth inhibition, 48 h
Where a SMILES comes first, the peptide text is derived from it. [ ]: non-standard residue; d: D form. The star is where a group is joined. ξ: configuration not given here. NMeF = CN[C@@H](Cc1ccccc1)C(=O)O; ξNMeV = CNC(C(=O)O)C(C)C; Boc = CC(C)(C)OC(=O)*; OBn = c1ccc(CO*)cc1
Item-by-item account of TGI
property_name: TGI

- CC(C)C(C(=O)N1CCC[C@@H]1C(=O)OCc1ccccc1)N(C)C(=O)C(C(C)C)N(C)C(=O)[C@H](Cc1ccccc1)N(C)C(=O)[C@H](NC(=O)OC(C)(C)C)C(C)C (stereo partly drawn) (Boc-[dV][NMeF][ξNMeV][ξNMeV][dP]-OBn): > 100 µM
- CSc1nc2c(N)ncnc2n1C: > 100 µM
- O=C(Nc1nc2ccc([N+](=O)[O-])cc2[n+]([O-])n1)C(F)(F)F: > 100 µM
- N#CCC(=O)N/N=C1\C(=O)N(c2ccc(Cl)cc2)C(=O)C(=O)C1c1nc2ccccc2o1 (stereo not drawn): > 100 µM
- COc1cc2cc[n+]3c4cc(OC)c(OC)cc4c(C)cc3c2cc1OC: > 100 µM
- CCOC(=O)C1=C(C)NC(=O)NC1c1coc2cc(C)cc(C)c2c1=O (stereo not drawn): > 100 µM
- CCCN(CCCCN1C(=O)c2ccccc2C1=O)CC1COc2ccccc2O1 (stereo not drawn): > 100 µM
- Cc1ccc(-n2c(Cn3nnc(-c4cccnc4)n3)nn(C3OC(COC(=O)c4ccccc4)C(OC(=O)c4ccccc4)C3OC(=O)c3ccccc3)c2=S)cc1 (stereo not drawn): > 100 µM
- COc1ccc(C(C2C(=O)N(C)C(=O)N(C)C2=O)C(F)(F)C(=O)N(C)C)cc1 (stereo not drawn): > 100 µM
- O=C(O)C#CCO: > 100 µM
- C/C(=C\CCc1ccoc1)CC/C=C(\C)CCCN1CCC(CO)CC1: 19 µM
- C#CCOC(=O)C(N)CSSCC(N)C(=O)O (stereo not drawn): > 100 µM
- CN(C)CCN=Cc1c2ccccc2c(=O)n2c1oc1ccccc12: 21.5 µM
- O=C1Nc2ccccc2Nc2nc3cccccc-3c21: > 100 µM
- O=c1c2ccccc2c(=O)c2c1cc(Cl)c1[nH]c3c([nH]c12)c(Cl)cc1c(=O)c2ccccc2c(=O)c13: > 100 µM
- Cc1ccc2c(=O)c(-c3nnc(N)s3)c[nH]c2n1: > 100 µM
- O=C(CCc1ccc(O)c(O)c1)NCCc1cc(OCc2ccccc2)cc(OCc2ccccc2)c1: 43.4 µM
- COC(=O)Nc1nc2cc3c(cc2s1)OCCO3: > 50 µM
- N#CN1CCC[C@H]1C(=O)N1CCc2c(-c3[nH]nc4ncccc34)cccc21: 11 µM
- O=C(O)CCC1(Br)CCCCC(Br)C1=O (stereo not drawn): > 100 µM
- CN1CCN(C(=S)N(C(=O)c2ccco2)c2ccccc2)CC1: > 100 µM
- COc1ccc2c(=O)c3cc([N+](=O)[O-])ccc3n(C)c2c1: > 100 µM
- CC1C/C(=N\N(C)C)C(C#N)(C#N)C1(C#N)C#N (stereo not drawn): 45 µM
- CCN(CC)CCNC(=O)c1cccc2cc3ccccc3nc12: > 100 µM
- CC12CC[C@H](O)C(C)(C)[C@H]1CC[C@](C)(O)C2COc1ccc2ccc(=O)oc2c1 (stereo partly drawn): > 100 µM
- O=c1cc(-c2ccccc2)oc2ccc(Oc3nnnn3-c3ccccc3)cc12: > 100 µM
- COc1ccc2c(c1)nc1n2C(c2c(F)cccc2Cl)SC1 (stereo not drawn): 51 µM
- O=c1[nH]c(SCc2c(Cl)c(Cl)c(Cl)c(Cl)c2Cl)nc(=S)[nH]1: > 100 µM
- CC(=O)Nc1cc2c(cc1O)CC[C@@H]1[C@@H]2CC[C@]2(C)[C@@H](O)CC[C@@H]12: > 100 µM
- O=P1(Oc2ccc(Cl)cc2)OCCS1 (stereo not drawn): > 100 µM
- CSc1ccc2c(cc1=O)C(NC(=O)c1ccc(OC(C)=O)cc1)CCc1cc(O)c(O)c(O)c1-2 (stereo not drawn): 60.2 µM
- Clc1ccc(OC2CCO2)cc1Cl (stereo not drawn): > 100 µM
- Cc1cc2c(cc1C)[n+](=O)c(N1CCN(c3ccc([N+](=O)[O-])cc3)CC1)c(C#N)n2[O-]: 49.8 µM
- N#CC(C#N)=C(N)/C(C#N)=C/c1cc(O)c(O)c(Br)c1: > 100 µM
- Cc1c(CCCl)c(N=[N+]=[N-])n2c(nc3ccccc32)c1C#N: 5.21 µM
- COc1cccc(C2NC(=S)NC(C)=C2C(=O)Nc2ccc(F)c(Cl)c2)c1 (stereo not drawn): > 50 µM
- COc1ccc(C2=NN(c3ccccc3)C(c3cc4cc(Br)ccc4nc3Cl)C2)cc1 (stereo not drawn): > 25 µM
- C[C@H]1CC(=O)C2=CCCC3(SCCCS3)[C@@H]2[C@H]1CO: > 100 µM
- O=C(NNC(=O)c1ccncc1)c1ccncc1: > 100 µM
- O=S1(=O)CS(=O)(=O)OCCCO1: > 100 µM
- Cc1ccc2[nH]c3[nH]c(=O)[nH]c(=O)c3c2c1: > 100 µM
- CCN(CC)C(=S)SC1CCOP(=O)(N(CCCl)CCCl)N1C (stereo not drawn): 49.2 µM
- COC(=O)C(Cc1ccccc1I)C1=CCC2(CC1)OCCO2 (stereo not drawn): > 100 µM

###

- Tested on: 786-0 renal
- test: NCI tumour cell line growth inhibition, 48 h; in the data active means GI50 below about 0.43 µM; inactive means the rest
Possible outcomes: 1 (active), -1 (inactive)

• CCCCN(CCCC)CCCN=c1nc2c(c(N)n1-c1ccccc1)c(=S)n(-c1ccccc1)c(=S)n2-c1ccccc1 = -1
• COC(=O)[C@@]1(C)CC[C@]2(C)CC[C@]3(C)C4=CC=C5C(=CC(=O)C(O)=C5C)[C@]4(C)CC[C@@]3(C)[C@@H]2C1 = 1
• O=C(c1cccs1)c1c(C(F)(F)F)n([O-])c2ccc(F)cc2[n+]1=O = -1
• C#CCNC(=O)CC[C@]1(C)[C@H]2CC[C@@H]3[C@@H]([C@@](C)(O)CCC=C(C)C)CC[C@@]3(C)[C@]2(C)CC[C@H]1C(=C)C = -1
